These entries and their values trace back to the supplement of paper PMC6555819.

system: PPARg:RXRa IVT, anti-PPARg (NR concentration 270 nM, RXRa partner concentration 90 nM); experiment: PBM binding z-score (relative to random genomic background probes); higher = stronger binding; sequences stand for … in GC…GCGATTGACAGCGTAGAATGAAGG
The following sequences are listed with their measured PBM binding z-score values.
METRIC: PBM binding z-score

{"SEQUENCE CODE": "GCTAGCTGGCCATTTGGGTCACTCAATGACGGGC", "REPORTED RESULT": 1.17}
{"SEQUENCE CODE": "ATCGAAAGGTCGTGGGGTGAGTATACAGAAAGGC", "REPORTED RESULT": 2.93}
{"SEQUENCE CODE": "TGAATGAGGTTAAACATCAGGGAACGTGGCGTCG", "REPORTED RESULT": 2.57}
{"SEQUENCE CODE": "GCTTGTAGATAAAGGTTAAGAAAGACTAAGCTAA", "REPORTED RESULT": 0.466}
{"SEQUENCE CODE": "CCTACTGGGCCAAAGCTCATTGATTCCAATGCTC", "REPORTED RESULT": 3.69}
{"SEQUENCE CODE": "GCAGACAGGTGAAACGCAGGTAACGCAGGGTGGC", "REPORTED RESULT": 0.737}
{"SEQUENCE CODE": "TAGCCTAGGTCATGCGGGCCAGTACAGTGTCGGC", "REPORTED RESULT": 2.81}
{"SEQUENCE CODE": "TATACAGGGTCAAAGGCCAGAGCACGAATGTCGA", "REPORTED RESULT": 4.99}
{"SEQUENCE CODE": "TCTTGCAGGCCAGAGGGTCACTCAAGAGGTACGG", "REPORTED RESULT": 1.74}
{"SEQUENCE CODE": "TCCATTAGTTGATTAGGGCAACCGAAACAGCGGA", "REPORTED RESULT": 1.28}
{"SEQUENCE CODE": "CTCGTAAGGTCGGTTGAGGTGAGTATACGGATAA", "REPORTED RESULT": 0.679}
{"SEQUENCE CODE": "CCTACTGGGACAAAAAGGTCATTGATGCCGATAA", "REPORTED RESULT": 4.26}
{"SEQUENCE CODE": "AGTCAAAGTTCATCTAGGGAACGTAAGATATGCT", "REPORTED RESULT": 2.78}
{"SEQUENCE CODE": "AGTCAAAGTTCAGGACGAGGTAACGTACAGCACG", "REPORTED RESULT": 2.01}
{"SEQUENCE CODE": "CCTACTGGGCCATCAGGTCATCGATATCAACGTT", "REPORTED RESULT": 5.09}
{"SEQUENCE CODE": "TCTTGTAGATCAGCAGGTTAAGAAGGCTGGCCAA", "REPORTED RESULT": 0.182}
{"SEQUENCE CODE": "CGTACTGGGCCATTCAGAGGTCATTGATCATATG", "REPORTED RESULT": 4.46}
{"SEQUENCE CODE": "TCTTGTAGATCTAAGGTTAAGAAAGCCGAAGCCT", "REPORTED RESULT": 0.863}
{"SEQUENCE CODE": "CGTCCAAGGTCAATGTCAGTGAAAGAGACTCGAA", "REPORTED RESULT": 3.14}
{"SEQUENCE CODE": "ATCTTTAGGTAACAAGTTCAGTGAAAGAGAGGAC", "REPORTED RESULT": 1.75}
{"SEQUENCE CODE": "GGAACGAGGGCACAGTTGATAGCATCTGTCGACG", "REPORTED RESULT": 3.92}
{"SEQUENCE CODE": "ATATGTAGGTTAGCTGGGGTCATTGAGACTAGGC", "REPORTED RESULT": 6.07}
{"SEQUENCE CODE": "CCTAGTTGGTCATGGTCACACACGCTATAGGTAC", "REPORTED RESULT": 1.72}
{"SEQUENCE CODE": "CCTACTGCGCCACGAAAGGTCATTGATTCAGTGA", "REPORTED RESULT": 1.65}
{"SEQUENCE CODE": "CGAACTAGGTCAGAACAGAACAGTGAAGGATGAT", "REPORTED RESULT": 7.16}
{"SEQUENCE CODE": "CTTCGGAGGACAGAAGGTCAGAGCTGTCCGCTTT", "REPORTED RESULT": 0.203}
